These measurements were taken from patent US11696913B2.

List of pest or weed control at 100 ppm values.
# Tested on: Laodelphax striatellus
# TEST: Insecticidal testing against small brown planthopper
# Assay type: in vivo
# ASSAY CONTEXT: 144 h, concentration 100 ppm, sprayed rice seedlings, after 6 days, read-out: pesticidal rate
# Description: Insecticidal Testing Against Small Brown Planthopper (Laodelphax striatellus) An additional test was carried out with 10 small brown planthoppers by preparing an acetone solution of the testing compound diluted to a predetermined concentration, spraying the solution onto rice seedlings and air drying the rice seedlings. The medicament was all used as received. The rice seedlings were placed in a constant-temperature room at 25° C., and the survival rate was investigated after 6 days. […]

{"COMPOUND": "CN(C(=O)c1ccc(F)c(F)c1)c1cccc(C(=O)Nc2c(Br)cc(C(F)(C(F)(F)F)C(F)(F)F)cc2OC(F)(F)F)c1F", "pest or weed control at 100 ppm": "≥ 70%"}
{"COMPOUND": "CN(C(=O)c1ccc(F)nc1)c1cccc(C(=O)Nc2c(I)cc(C(F)(C(F)(F)F)C(F)(F)C(F)(F)F)cc2C(F)(F)F)c1F (stereo not drawn)", "pest or weed control at 100 ppm": "≥ 70%"}
{"COMPOUND": "COc1ccc(C(=O)N(C)c2cccc(C(=O)Nc3c(I)cc(C(F)(C(F)(F)F)C(F)(F)F)cc3C(F)(F)F)c2F)cc1", "pest or weed control at 100 ppm": "≥ 70%"}

###

# Tested on: Laodelphax striatellus
# TEST: Insecticidal testing against small brown planthopper
# Format: in vivo
# ASSAY CONTEXT: 144 h, concentration 100 ppm, sprayed rice seedlings, after 6 days, read-out: pesticidal rate
List of pest or weed control at 100 ppm values.
EXPERIMENTAL READOUT: pest or weed control at 100 ppm

{"COMPOUND": "CN(C(=O)c1ccc(F)cc1)c1cccc(C(=O)Nc2c(I)cc(C(F)(C(F)(F)F)C(F)(F)F)cc2OC(F)(F)F)c1F [Compound 74]", "EXPERIMENTAL READOUT": "pest or weed control at 100 ppm", "RECORDED VALUE": "≥ 70%"}
{"COMPOUND": "CN(C(=O)c1ccc(Cl)c(Cl)c1)c1cccc(C(=O)Nc2c(I)cc(C(F)(C(F)(F)F)C(F)(F)F)cc2C(F)(F)F)c1F [Compound 44]", "EXPERIMENTAL READOUT": "pest or weed control at 100 ppm", "RECORDED VALUE": "≥ 70%"}
{"COMPOUND": "O=C(Nc1cccc(C(=O)Nc2c(Br)cc(C(F)(C(F)(F)F)C(F)(F)F)cc2OC(F)(F)F)c1F)c1ccc(C(F)(F)F)nc1 [Compound 99]", "EXPERIMENTAL READOUT": "pest or weed control at 100 ppm", "RECORDED VALUE": "≥ 70%"}
{"COMPOUND": "O=C(Nc1cccc(C(=O)Nc2c(Br)cc(C(F)(C(F)(F)F)C(F)(F)F)cc2OC(F)(F)F)c1F)c1ccc(F)cc1 [Compound 71]", "EXPERIMENTAL READOUT": "pest or weed control at 100 ppm", "RECORDED VALUE": "≥ 70%"}
{"COMPOUND": "CN(C(=O)c1ccc(C(F)(F)F)nc1)c1cccc(C(=O)Nc2c(Br)cc(C(F)(C(F)(F)F)C(F)(F)F)cc2OC(F)(F)F)c1F [Compound 98]", "EXPERIMENTAL READOUT": "pest or weed control at 100 ppm", "RECORDED VALUE": "≥ 70%"}
{"COMPOUND": "O=C(Nc1cccc(C(=O)Nc2c(I)cc(C(F)(C(F)(F)F)C(F)(F)F)cc2OC(F)(F)F)c1F)c1ccc(F)cc1 [Compound 73]", "EXPERIMENTAL READOUT": "pest or weed control at 100 ppm", "RECORDED VALUE": "≥ 70%"}
{"COMPOUND": "CN(C(=O)c1ccc(C(F)(F)F)nc1)c1cccc(C(=O)Nc2c(I)cc(C(F)(C(F)(F)F)C(F)(F)F)cc2OC(F)(F)F)c1F [Compound 117]", "EXPERIMENTAL READOUT": "pest or weed control at 100 ppm", "RECORDED VALUE": "≥ 70%"}
{"COMPOUND": "O=C(Nc1cccc(C(=O)Nc2c(Br)cc(C(F)(C(F)(F)F)C(F)(F)F)cc2OC(F)(F)F)c1F)c1ccc(F)c(F)c1 [Compound 101]", "EXPERIMENTAL READOUT": "pest or weed control at 100 ppm", "RECORDED VALUE": "≥ 70%"}
{"COMPOUND": "CN(C(=O)c1ccc(F)cc1)c1cccc(C(=O)Nc2c(Br)cc(C(F)(C(F)(F)F)C(F)(F)C(F)(F)F)cc2OC(F)F)c1F (stereo not shown) [Compound 105]", "EXPERIMENTAL READOUT": "pest or weed control at 100 ppm", "RECORDED VALUE": "≥ 70%"}
{"COMPOUND": "CN(C(=O)c1ccc(F)c(F)c1)c1cccc(C(=O)Nc2c(I)cc(C(F)(C(F)(F)F)C(F)(F)F)cc2C(F)(F)F)c1F [Compound 51]", "EXPERIMENTAL READOUT": "pest or weed control at 100 ppm", "RECORDED VALUE": "≥ 70%"}
{"COMPOUND": "O=C(Nc1cccc(C(=O)Nc2c(I)cc(C(F)(C(F)(F)F)C(F)(F)F)cc2S(=O)(=O)C(F)(F)F)c1F)c1ccc(F)cc1 [Compound 64]", "EXPERIMENTAL READOUT": "pest or weed control at 100 ppm", "RECORDED VALUE": "≥ 70%"}
{"COMPOUND": "O=C(Nc1cccc(C(=O)Nc2c(I)cc(C(F)(C(F)(F)F)C(F)(F)F)cc2C(F)(F)F)c1F)c1ccc(F)cc1 [Compound 63]", "EXPERIMENTAL READOUT": "pest or weed control at 100 ppm", "RECORDED VALUE": "≥ 70%"}
{"COMPOUND": "O=C(Nc1cccc(C(=O)Nc2c(I)cc(C(F)(C(F)(F)F)C(F)(F)C(F)(F)F)cc2C(F)(F)F)c1F)c1ccc(F)nc1 (stereo not shown) [Compound 82]", "EXPERIMENTAL READOUT": "pest or weed control at 100 ppm", "RECORDED VALUE": "≥ 70%"}
{"COMPOUND": "CN(C(=O)c1ccc(C#N)nc1)c1cccc(C(=O)Nc2c(I)cc(C(F)(C(F)(F)F)C(F)(F)F)cc2C(F)(F)F)c1F [Compound 57]", "EXPERIMENTAL READOUT": "pest or weed control at 100 ppm", "RECORDED VALUE": "≥ 70%"}
{"COMPOUND": "CN(C(=O)c1ccc(Cl)cc1)c1cccc(C(=O)Nc2c(I)cc(C(F)(C(F)(F)F)C(F)(F)F)cc2C(F)(F)F)c1F [Compound 60]", "EXPERIMENTAL READOUT": "pest or weed control at 100 ppm", "RECORDED VALUE": "≥ 70%"}
{"COMPOUND": "CSc1ccc(C(=O)N(C)c2cccc(C(=O)Nc3c(I)cc(C(F)(C(F)(F)F)C(F)(F)F)cc3C(F)(F)F)c2F)cc1 [Compound 53]", "EXPERIMENTAL READOUT": "pest or weed control at 100 ppm", "RECORDED VALUE": "≥ 70%"}
{"COMPOUND": "CN(C(=O)c1ccc(C(F)(F)F)nc1)c1cccc(C(=O)Nc2c(I)cc(C(F)(C(F)(F)F)C(F)(F)C(F)(F)F)cc2C(F)(F)F)c1F (stereo not shown) [Compound 119]", "EXPERIMENTAL READOUT": "pest or weed control at 100 ppm", "RECORDED VALUE": "≥ 70%"}
{"COMPOUND": "CN(C(=O)c1ccc(F)cc1)c1cccc(C(=O)Nc2c(Br)cc(C(F)(C(F)(F)F)C(F)(F)F)cc2OC(F)F)c1F [Compound 89]", "EXPERIMENTAL READOUT": "pest or weed control at 100 ppm", "RECORDED VALUE": "≥ 70%"}
{"COMPOUND": "O=C(Nc1cccc(C(=O)Nc2c(Br)cc(C(F)(C(F)(F)F)C(F)(F)C(F)(F)F)cc2OC(F)F)c1F)c1ccc(F)cc1 (stereo not shown) [Compound 106]", "EXPERIMENTAL READOUT": "pest or weed control at 100 ppm", "RECORDED VALUE": "≥ 70%"}
{"COMPOUND": "CN(C(=O)c1ccc(F)cc1)c1cccc(C(=O)Nc2c(Br)cc(C(F)(C(F)(F)F)C(F)(F)C(F)(F)F)cc2OC(F)(F)F)c1F (stereo not shown) [Compound 94]", "EXPERIMENTAL READOUT": "pest or weed control at 100 ppm", "RECORDED VALUE": "≥ 70%"}
{"COMPOUND": "CN(C(=O)c1ccc(C(F)F)nc1)c1cccc(C(=O)Nc2c(I)cc(C(F)(C(F)(F)F)C(F)(F)F)cc2C(F)(F)F)c1F [Compound 87]", "EXPERIMENTAL READOUT": "pest or weed control at 100 ppm", "RECORDED VALUE": "≥ 70%"}
{"COMPOUND": "O=C(Nc1cccc(C(=O)Nc2c(I)cc(C(F)(C(F)(F)F)C(F)(F)C(F)(F)F)cc2C(F)(F)F)c1F)c1ccc(F)c(F)c1 (stereo not shown) [Compound 78]", "EXPERIMENTAL READOUT": "pest or weed control at 100 ppm", "RECORDED VALUE": "≥ 70%"}
{"COMPOUND": "CN(C(=O)c1ccc(F)cc1)c1cc(C(=O)Nc2c(Cl)cc(C(F)(C(F)(F)F)C(F)(F)F)cc2C(F)(F)F)ccc1F [Compound 83]", "EXPERIMENTAL READOUT": "pest or weed control at 100 ppm", "RECORDED VALUE": "≥ 70%"}
{"COMPOUND": "O=C(Nc1cccc(C(=O)Nc2c(I)cc(C(F)(C(F)(F)F)C(F)(F)F)cc2C(F)(F)F)c1F)c1ccc(C(F)F)nc1 [Compound 85]", "EXPERIMENTAL READOUT": "pest or weed control at 100 ppm", "RECORDED VALUE": "≥ 70%"}
{"COMPOUND": "O=C(Nc1cc(C(=O)Nc2c(I)cc(C(F)(C(F)(F)F)C(F)(F)F)cc2C(F)(F)F)ccc1F)c1ccc(F)cc1 [Compound 84]", "EXPERIMENTAL READOUT": "pest or weed control at 100 ppm", "RECORDED VALUE": "≥ 70%"}
